Source of measurements: patent US20240208968A1

- experimental target: αvβ6 (Homo sapiens, UniProt P06756+P18564)
- Sequence (P06756 31-992 limits assumed): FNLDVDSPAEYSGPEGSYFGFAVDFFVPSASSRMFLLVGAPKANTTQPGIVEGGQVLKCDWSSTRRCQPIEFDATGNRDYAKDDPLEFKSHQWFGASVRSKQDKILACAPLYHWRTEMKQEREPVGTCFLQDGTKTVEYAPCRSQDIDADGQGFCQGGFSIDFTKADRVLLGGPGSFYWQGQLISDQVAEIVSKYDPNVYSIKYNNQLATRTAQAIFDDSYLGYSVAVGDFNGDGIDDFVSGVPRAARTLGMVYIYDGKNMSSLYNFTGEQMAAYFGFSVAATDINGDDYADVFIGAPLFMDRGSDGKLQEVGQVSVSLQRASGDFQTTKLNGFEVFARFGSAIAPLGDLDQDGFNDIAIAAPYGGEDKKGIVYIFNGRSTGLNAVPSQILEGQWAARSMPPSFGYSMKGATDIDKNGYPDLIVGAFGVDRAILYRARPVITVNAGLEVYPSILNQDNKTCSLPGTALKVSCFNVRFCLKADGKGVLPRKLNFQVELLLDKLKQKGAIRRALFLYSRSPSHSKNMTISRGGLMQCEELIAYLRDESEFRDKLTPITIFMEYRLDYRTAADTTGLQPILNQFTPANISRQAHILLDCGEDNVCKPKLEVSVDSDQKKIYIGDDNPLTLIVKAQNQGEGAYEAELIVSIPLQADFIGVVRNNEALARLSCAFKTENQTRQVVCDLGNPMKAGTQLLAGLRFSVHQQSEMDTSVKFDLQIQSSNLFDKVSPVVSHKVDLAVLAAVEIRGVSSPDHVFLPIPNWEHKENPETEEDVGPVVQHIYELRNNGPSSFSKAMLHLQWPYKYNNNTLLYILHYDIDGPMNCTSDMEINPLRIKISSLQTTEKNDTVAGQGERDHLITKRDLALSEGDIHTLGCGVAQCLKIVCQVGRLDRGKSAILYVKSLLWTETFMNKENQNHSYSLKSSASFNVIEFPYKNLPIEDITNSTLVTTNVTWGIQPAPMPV
- Sequence (P18564 22-707 limits assumed): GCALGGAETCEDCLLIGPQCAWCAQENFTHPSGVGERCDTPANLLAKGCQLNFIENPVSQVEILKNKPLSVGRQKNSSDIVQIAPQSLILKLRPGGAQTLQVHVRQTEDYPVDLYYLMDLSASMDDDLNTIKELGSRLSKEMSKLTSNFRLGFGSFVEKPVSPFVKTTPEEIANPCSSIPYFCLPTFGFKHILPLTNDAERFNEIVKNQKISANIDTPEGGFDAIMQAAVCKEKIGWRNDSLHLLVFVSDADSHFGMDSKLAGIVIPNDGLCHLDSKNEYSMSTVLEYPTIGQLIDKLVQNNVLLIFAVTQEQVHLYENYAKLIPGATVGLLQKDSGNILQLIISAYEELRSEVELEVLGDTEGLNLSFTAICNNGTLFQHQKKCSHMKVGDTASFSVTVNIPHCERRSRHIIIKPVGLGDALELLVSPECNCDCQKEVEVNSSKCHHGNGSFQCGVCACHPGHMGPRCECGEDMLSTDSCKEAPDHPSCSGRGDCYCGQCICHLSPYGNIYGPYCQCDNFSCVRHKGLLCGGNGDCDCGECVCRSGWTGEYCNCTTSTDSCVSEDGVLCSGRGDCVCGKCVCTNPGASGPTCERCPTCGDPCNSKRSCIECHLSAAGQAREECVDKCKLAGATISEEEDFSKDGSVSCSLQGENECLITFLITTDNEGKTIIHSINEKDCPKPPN
- test method notes: Solid Phase Integrin αvβ6 Assay
Structures can show the parent of a compound that is named as a salt.
IC50 by entry:

See these solved cases before continuing.
# compound, IC50
data = [
    ("O=C(O)C[C@H](CO[C@@H]1CCCN(CCCc2ccc3c(n2)NCCC3)C1)c1cccc([C@@H]2CCOC2)c1", "< 100 nM"),
    ("O=C(O)C[C@H](NC(=O)[C@@H]1CCCN(CCCc2ccc3c(n2)NCCC3)C1)c1cccc(Br)c1 [Compound 205, hydrochloride]", "< 100 nM"),
    ("O=C(O)[C@H](CO[C@@H]1CCCN(Cc2ccc3c(n2)NCCC3)C1)NC(=O)C12CCC(CC1)CC2", "> 1000 nM"),
    ("O=C(O)C[C@H](NC(=O)[C@]1(F)CCCN(CCCc2ccc3c(n2)NCCC3)C1)c1ccccc1", "100 to 1000 nM"),
    ("O=C(O)C[C@H](CO[C@@H]1CCCN(CCCc2ccc3c(n2)NCCC3)C1)c1cc(F)cc(C2CC2)c1", "< 100 nM"),
    ("O=C(O)C[C@H](CO[C@@H]1CCCN(CCCc2ccc3c(n2)NCCC3)C1)c1cc(C2CC2)ccc1F", "< 100 nM"),
]

Next compound, please.
Request: Which IC50 value is on record for O=C(O)[C@H](CCO[C@@H]1CCCN(CCCc2ccc3c(n2)NCCC3)C1)Nc1ncnc2cc(C(F)(F)F)ccc12 ?
Result: > 1000 nM

---

- experimental target: αvβ6 (Homo sapiens, UniProt P06756+P18564)
- test method notes: Solid Phase Integrin αvβ6 Assay
- Assay type: binding
- Method: The compounds exemplified in this document were tested for their ability to inhibit αvβ1 and αvβ6 in below described solid phase integrin assays. Solid Phase Integrin αvβ6 Assay 96-well microtiter plates (4 HBX Immulon; Thermo Fisher Scientific, Waltham, MA) were coated with 100 μL/well of 1 μg/mL recombinant TGFb1-LAP in TBS at 4° C., overnight. […] Bound protein was detected using the substrate TMB. […]
pIC50: −log10 of the molar value. Where a name gives a salt, the structure may show the parent alone.
value type: pIC50

See these solved cases before continuing.
# compound, pIC50
measured = [
    ("C[C@@H]1CN(c2cccc([C@H](CNC(=O)[C@@H]3CCCN(CCCc4ccc5c(n4)NCCC5)C3)C(=O)O)c2)C[C@H](C)O1", "6.00 to 7.00"),
    ("Cc1cc(C)n(-c2cccc([C@H](CNC(=O)[C@@H]3CCCN(CCCc4ccc5c(n4)NCCC5)C3)C(=O)O)c2)n1", "> 7.00"),
    ("O=C(NC[C@H](NS(=O)(=O)c1cccc2c1CCC2)C(=O)O)[C@@H]1CCCN(CCCc2ccc3c(n2)NCCC3)C1", "> 7.00"),
    ("O=C(O)C[C@@H](O[C@@H]1CCCN(CCCc2ccc3c(n2)NCCC3)C1)c1ccccc1", "< 6.00"),
    ("O=C(N[C@@H](CNC(=O)[C@@H]1CCCN(CCCc2ccc3c(n2)NCCC3)C1)C(=O)O)C1CCC(F)(F)CC1", "> 7.00"),
    ("O=C(NC[C@H](Nc1ncnc2cc(C(F)(F)F)ccc12)C(=O)O)[C@@H]1CCCN(CCCc2ccc3c(n2)NCCC3)C1 [Compound 282, hydrochloride]", "> 7.00"),
]

Request: Which pIC50 value is on record for O=C(NC[C@@H](C(=O)O)c1ccc2c(c1)CCC2)[C@@H]1CCCN(CCCc2ccc3c(n2)NCCC3)C1 ?
Result: > 7.00

Request: Which pIC50 value is on record for O=C(O)C[C@H](NC(=O)[C@@H]1CCCN(CCCc2ccc3c(n2)NCCC3)C1)c1cnn(-c2ccccc2)c1 ?
Result: > 7.00

Request: Which pIC50 value is on record for CC1(C(=O)N[C@@H](CNC(=O)[C@@H]2CCCN(CCCc3ccc4c(n3)NCCC4)C2)C(=O)O)CCCCC1 [Compound 263, hydrochloride] ?
Result: > 7.00

Request: Which pIC50 value is on record for O=C(CC[C@@H](NC(=O)C12CCC(CC1)CC2)C(=O)O)N[C@@H]1CCN(CCCCc2ccc3c(n2)NCCC3)C1 ?
Result: < 6.00
